assay: melting temperature; fluorescence melt of hairpins on a sequencing array, two-state fit, raised by 9.35 °C to match UV melts; settings: sodium 0.088 M
assay endpoint: Tm (°C)
The reply should be a number in °C, with the unit left off.

Known results for sequences:
INSERT INTO assay_data (construct_sequence, assay_endpoint, measured_value) VALUES
  ('GAGAGTGGAAACGCTTTC ((.((.(....).)).))', 'Tm', 27.3),
  ('GATCAAACAATTGATC ((((((....))))))', 'Tm', 37.1),
  ('GCGCCGCGAAAGCCACGC (((..((....))..)))', 'Tm', 50.1),
  ('GAAAACGCGAAAGCGTTC (((..(((....))))))', 'Tm', 41.1),
  ('GCAAGGCGAAAGCCCGGC ((..(((....)))..))', 'Tm', 45.9),
  ('GTGGGGCCGAAAGGCCAC (((..(((....))))))', 'Tm', 64.9),
  ('GGGGTCGAAAGACATCCC ((((((....)))..)))', 'Tm', 46.5),
  ('GGCGCAGGAAACCGCACC ((.((.(....).)).))', 'Tm', 39);

Qu. Requested read-out: Tm. Entry: GAAAGGGGAAACCCCTTC (((.(((....))).)))
Ans. 39.9

Qu. Recorded Tm for GTGCGAGGAAACTCACAC (((.(((....))).))) , please?
Ans. 45.8

Qu. // returns reported Tm for input GCAAAGCGAAAGCAGTGC (((..((....))..)))
Ans. 44.7

Qu. # Tm lookup, item GGAGTTGGAAACGACTCC (((((.(....).)))))
Ans. 54.9

Qu. Can you share its Tm? I mean this sequence: CGCGGACCGTCCGCG ((((((...))))))
Ans. 68.9

Qu. Need Tm, item GTGGGAGGAAACTCCCGC (.(((((....))))).)
Ans. 56.7

Qu. Need Tm of GCCATTGGAAACAATGGC (((((((....))))))) , thanks.
Ans. 67.5

Qu. Given GCCAGCCGAAAGGCCGGC (((.(((....))).))) , state its recorded Tm.
Ans. 68.4

Qu. For the sequence GGTCCAGGAAACCGAACC (((.(.(....).).))) , what Tm is on record?
Ans. 25.7

----------
assay: folding enthalpy; higher = less favourable; fluorescence melt of hairpins on a sequencing array, two-state fit; details: sodium 0.088 M
Recorded folding enthalpy values for a group of sequences are listed next.
Provide only the numeric value, understood in kcal/mol.

Some solved entries appear below for comparison.
INSERT INTO assay_data (construct_sequence, assay_endpoint, measured_value) VALUES
  ('GTCGTTGGAAACAACGAC (((((((....)))))))', 'folding enthalpy', -41.6),
  ('GCAACCGAAAGGTATTGC ((((((....)))..)))', 'folding enthalpy', -18.3),
  ('GATAACGGAAACGCTATC ((((.((....)).))))', 'folding enthalpy', -29.5);

Qu. Query (sequence): GGGCTTCGAAAGAACCCC (((.(((....))).))) ; field requested: folding enthalpy
Ans. -20.5

Qu. Give the measured folding enthalpy of GGCACCGAAAGGTCTGCC ((((((....)))..))) .
Ans. -22.2

Qu. Entry GCGACTGGTCGC ((((....)))) : reported folding enthalpy = ?
Ans. -38.1

Qu. Item GCTCGACGAAAGTCCAGC (((.(((....))).))) has what recorded folding enthalpy?
Ans. -24.1

Qu. GET /values?readout=folding enthalpy&item= GTATGTGGAAACACACAC ((.((((....)))).))
Ans. -17.1

----------
Each entry below carries its reported Tm.
assay: melting temperature; fluorescence melt of hairpins on a sequencing array, two-state fit, raised by 9.35 °C to match UV melts; details: sodium 0.088 M
Write down the numeric answer in °C and omit the unit.

Recorded Tm, per entry:
INSERT INTO assay_data (construct_sequence, units, measured_value) VALUES
  ('GACAACCCGAAAGGGGTC (((..(((....))))))', '°C', 39.1),
  ('GACTGTCCGAAAGGAGTC (((..(((....))))))', '°C', 36.1),
  ('GCAAGCGAAAGCTAATGC ((((((....)))..)))', '°C', 39.4);

Qu. For the sequence GTATGTGGAAACACACAC ((.((((....)))).)) , what Tm is on record?
Ans. 35.2

Qu. Look up Tm: GAACCAGGAAACTGATTC (((.(((....))).)))
Ans. 32.3

Qu. Consider the sequence shown here: GCTTCACCGAAAGGTAGC (((..(((....)))))) What is its recorded Tm?
Ans. 35.3

Qu. Requested read-out: Tm. Entry: GCACTAGGAAACTAGTAC (.(((((....))))).)
Ans. 31

Qu. Look up Tm for this sequence: GTAAGGGGAAACCCTTGC (.(((((....))))).)
Ans. 46.2

Qu. // query Tm value for entry GTGAAGTCGAAAGACCAC (((..(((....))))))
Ans. 38.3

----------
Tm values, listed per item
assay: melting temperature; fluorescence melt of hairpins on a sequencing array, two-state fit, raised by 9.35 °C to match UV melts; settings: sodium 0.088 M
Write it as a number; the unit °C goes unstated.

INSERT INTO assay_data (construct_sequence, measured_value) VALUES
  ('GATCCAACATTGGATC ((((((....))))))', 50),
  ('GCATGGCGAAAGCCAAGC ((.((((....)))).))', 61.6),
  ('GATCAGTGGCTGATC ((((((...))))))', 49.7),
  ('GCGCTGGGAAACCAGTGC ((.((((....)))).))', 60.6),
  ('GAGGCAGAAATGCCTC ((((((....))))))', 60.7),
  ('GATCAAAGCTTTGATC ((((((....))))))', 50.8);

Qu. Recorded Tm for GTCTAGGAAACTAGAC ((((((....)))))) , please?
Ans. 50.8

Qu. Data request, read-out Tm, for GGTGACGAAAGTCTCACC ((((((....)))..)))
Ans. 40.9

Qu. What does the data say about its Tm? Entry: GATCCGCCTGCGGATC ((((((....))))))
Ans. 69.2

Qu. Consider the sequence shown here: GATCGTGCCGACGATC ((((((....)))))) What is its recorded Tm?
Ans. 56.4

Qu. Bench note: what Tm did GGCCCGGGAAACCGGGTC (.(((((....))))).) show?
Ans. 67.3

Qu. Quick one: Tm of GACGGGGGAAACCCTGTC (((.(((....))).))) ?
Ans. 54.4

Qu. Query: Tm; subject: GATCGCCTACGCGATC ((((((....))))))
Ans. 67.4

Qu. Entry GATCCACCGTGGATC ((((((...)))))) : reported Tm = ?
Ans. 48.5

Qu. Dear colleague, I am looking for the recorded Tm of the following sequence: GTCTACGAAAGTAAGAC ((((((....))).)))
Ans. 46.5

Qu. For GGCTACGCGAAAGCGGCC (((..(((....)))))) , what is its reported Tm?
Ans. 56.9

Qu. // lookup Tm for GCTCTCCGAAAGGATAGC (((.(((....))).)))
Ans. 49.1

----------
assay: melting temperature; fluorescence melt of hairpins on a sequencing array, two-state fit, raised by 9.35 °C to match UV melts; conditions: sodium 0.088 M
So basically: Tm at 50 °C or higher? That is rule met. Lower than 50 °C? That is rule not met.

Example results:
INSERT INTO measurements (construct_sequence, group_label) VALUES
  ('GGCTTCGAAAGAAATGCC ((((((....)))..)))', 'rule not met'),
  ('GATCAGAGGGCTGATC ((((((....))))))', 'rule not met'),
  ('GATCCCAGAGGGGATC ((((((....))))))', 'rule met'),
  ('GTTAAACGAAAGTTAAC (((.(((....))))))', 'rule not met'),
  ('GCAACCGAAAGGTATTGC ((((((....)))..)))', 'rule not met');

Qu. Check if Tm >= 50 °C (inclusive). Item: GTGGTAGGAAACTGCTAC ((.(.((....)).).))
Ans. rule not met

Qu. Hi, just wondering whether GAGCACGAAAGTGGTCTC ((((((....)))..))) shows Tm of 50 °C or higher.
Ans. rule met
